Molecular target: Human MTAP (Homo sapiens)
Construct: six-histidine tag (His6) (N); made in house; host or cells: E. coli BL21 DE3
Sequence (Q13126 whole entry): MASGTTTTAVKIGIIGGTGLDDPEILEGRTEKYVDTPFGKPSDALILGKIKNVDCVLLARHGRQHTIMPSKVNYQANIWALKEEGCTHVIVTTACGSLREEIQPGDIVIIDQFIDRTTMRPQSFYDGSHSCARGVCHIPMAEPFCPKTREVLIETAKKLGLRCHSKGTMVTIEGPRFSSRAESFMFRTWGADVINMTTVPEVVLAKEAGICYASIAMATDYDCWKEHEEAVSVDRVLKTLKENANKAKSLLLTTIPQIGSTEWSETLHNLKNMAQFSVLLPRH
Assay: MTAP substrate assay, coupled spectrophotometric (adenine, xanthine oxidase)
Assay type: biochemical
Conditions: compound 10 uM, 2 nM MTAP, relative to MTA at 10 uM
# Criterion met = MT-A—10: initial velocity as a percentage of the initial velocity with MTA as substrate below 20% (exclusive); Criterion not met = MT-A—10: initial velocity as a percentage of the initial velocity with MTA as substrate at/above 20%

>>> class_label("Nc1ncnc2c1ncn2[C@@H]1O[C@H](CSc2nccc(C(F)(F)F)n2)[C@@H](O)[C@H]1O")
"Criterion not met"
>>> class_label("Cc1ccc(C(C)(C)C)cc1SC[C@H]1O[C@@H](n2cnc3c(N)ncnc32)[C@H](O)[C@@H]1O")
"Criterion met"
>>> class_label("Nc1ncnc2c1ncn2[C@@H]1O[C@H](CSc2ccc(C(=O)O)cc2)[C@@H](O)[C@H]1O")
"Criterion met"
>>> class_label("CC(=O)Nc1ccc(SC[C@H]2O[C@@H](n3cnc4c(N)ncnc43)[C@H](O)[C@@H]2O)cc1")
"Criterion met"
>>> class_label("Cc1nc(SC[C@H]2O[C@@H](n3cnc4c(N)ncnc43)[C@H](O)[C@@H]2O)nc(O)c1C")
"Criterion met"
>>> class_label("Nc1ncnc2c1ncn2[C@@H]1O[C@H](CSc2cccc(Cl)c2Cl)[C@@H](O)[C@H]1O")
"Criterion met"
>>> class_label("CCCCCCCCCSC[C@H]1O[C@@H](n2cnc3c(N)ncnc32)[C@H](O)[C@@H]1O")
"Criterion not met"
